Data credit: the supplement of paper PMC10567573

Reported protein stability index values follow for various variants
B1: RPS21 (parent)
chain: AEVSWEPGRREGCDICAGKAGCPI

# Variants of: B1
# assay: protein stability index of a GFP-peptide fusion (GPS, HEK-293T) (PSI 1-6); higher = more stable;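 further: lentivirally expressed fusions sorted by FACS into six bins by GFP to DsRed ratio, PSI derived from sequencing read proportions per bin multiplied by bin number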
# assayContext: c terminus: a fixed tail appended
endpoint: protein stability index

{"columns": ["mutationSpec", "endpoint", "result"],
 "data": [
  ["P23L", "protein stability index", 2.92],
  ["G21M", "protein stability index", 3.01],
  ["E11S", "protein stability index", 2.96]
]}
